Exercise: for every item that follows, state its recorded lowest phenotypically active concentration.
Tested on: HepG2-TUBA1B-RELA
Experiment: lowest phenotypically active concentration; higher = less potent
Conditions: treatment time: 24 h
Where a name gives a salt, the structure may show the parent alone.
Give bare numbers, in µM.

Some compounds with known lowest phenotypically active concentration results, for comparison:
# COMPOUND, READING_UNIT, TEST_RESULT
data = [
    ("Fc1ccccc1Nc1nc2nonc2nc1Nc1ccccc1F", "µM", 9),
    ("Cc1cccc(CN2CCN(C(c3ccccc3)c3ccc(Cl)cc3)CC2)c1 (stereo not given) [Meclizine dihydrochloride]", "µM", 9),
]

We now examine a further compound.
Query: GET /values?readout=lowest phenotypically active concentration&system=HepG2-TUBA1B-RELA&item= CCN1CCN(c2cc(-c3ccc(F)cc3)c3c(n2)CCCCCC3)CC1 [blonanserin]
Result: 3

---

Tested on: A549-GM130-SQSTM1
Assay: phenotypically active (imaging signature differs from DMSO and reproducible) at any of 0.3-9 uM (binary (1 = active, 0 = inactive)); higher = active
Conditions: treatment time: 24 h
Exercise: for every item that follows, state its recorded phenotypically active.
One number for each entry.

Some compounds with known phenotypically active results, for comparison:
# COMPOUND, TARGET, phenotypically active
measured = [
    ("CCOC(=O)C(C)(C)Oc1ccc(Cl)cc1 [Clofibrate]", "A549-GM130-SQSTM1", 0),
    ("CC(=O)c1ccc(S(=O)(=O)NC(=O)NC2CCCCC2)cc1 [acetohexamide]", "A549-GM130-SQSTM1", 0),
    ("CCc1nc(-c2cccc(C)c2)c(-c2ccnc(NC(=O)c3ccccc3)c2)s1", "A549-GM130-SQSTM1", 1),
    ("COc1cc2c(cc1OCCCN1CCCC1)N=C(N)C21CCC1", "A549-GM130-SQSTM1", 1),
]

Query: Look up phenotypically active: Cc1cc(Nc2nc(N[C@@H](C)c3ncc(F)cn3)ncc2Cl)n[nH]1
Result: 1

---

System: WPMY1-TUBA1B-RELA
Assay: lowest phenotypically active concentration; higher = less potent
Settings: treatment time: 24 h
Structures can show the parent of a compound that is named as a salt.
Exercise: for every item that follows, state its recorded lowest phenotypically active concentration.

Some molecules with known lowest phenotypically active concentration results, for comparison:
# MOLECULE, TEST_RESULT
records = [
    ("COc1ccc(CCNCc2ccc(OCc3ccc(Cl)nc3)c(OC)c2)cc1OC [SBE 13 hydrochloride]", "9 µM"),
    ("CC[C@@H](N)CNc1ccnc(-c2cc(-c3cnn(C)c3)ccc2O)n1", "1 µM"),
    ("CO[C@H]1C[C@@H]2CC[C@@H](C)[C@@](O)(O2)C(=O)C(=O)N2CCCC[C@H]2C(=O)O[C@H]([C@H](C)C[C@@H]2CC[C@@H](OC(=O)C(C)(CO)CO)[C@H](OC)C2)CC(=O)[C@H](C)C=C(C)[C@@H](O)[C@@H](OC)C(=O)[C@H](C)C[C@H](C)C=CC=CC=C1C", "3 µM"),
    ("CN(C)CCCN1c2ccccc2CCc2ccc(Cl)cc21", "9 µM"),
]

# return lowest phenotypically active concentration for each item in the list
1. COc1cc(-c2cn(C)c(=O)c3cnccc23)c(OC)cc1CN(C)C
2. O=S(=O)(c1cccc2c(O)nccc12)N1CCCNCC1 [HA 1100 hydrochloride]
3. COc1cc(N2CCOCC2)ccc1Nc1ncc(Cl)c(Nc2ccccc2NS(C)(=O)=O)n1
4. CN1CCCC(n2nc(Cc3ccc(Cl)cc3)c3ccccc3c2=O)CC1 (configuration not stated)
5. O=C(NCCN1CCC(n2c(=O)[nH]c3ccccc32)CC1)c1cc2cc(F)ccc2[nH]1
6. COc1ccccc1S(=O)(=O)Nc1ccc2c(c1)CN(C)C(=O)N2

Result:
9 µM
3 µM
3 µM
9 µM
9 µM
3 µM

# return lowest phenotypically active concentration for each item in the list
1. O=C(Nc1cccc(Cl)c1)Nc1ncc(CCNc2ncnc3ccsc23)s1 [SNS 314 mesylate]
2. Cc1cccc(-c2nn(C(=S)Nc3ccccc3)cc2-c2ccnc3ccccc23)n1
3. CCCC1(CCC)CCC2(CCN(CCCN(CC)CC)C2)CC1 [Atiprimod dihydrochloride]
4. O=C(CCCCSc1nc(-c2ccc(-c3ccccc3)cc2)cc(=O)[nH]1)NO
5. CCN(CC)CCCC(C)Nc1ccnc2cc(Cl)ccc12 (configuration not stated)
6. N#C/C(=C/c1ccc(O)c(O)c1)C(=O)NCCCCc1ccccc1

Result:
1: ≤ 0.3 µM; 2: 9 µM; 3: 1 µM; 4: ≤ 0.3 µM; 5: 9 µM; 6: 9 µM

Query: GET /values?readout=lowest phenotypically active concentration&system=WPMY1-TUBA1B-RELA&item= Cc1ccc(C(=O)N(CCCN)[C@@H](c2nc3cc(Cl)ccc3c(=O)n2Cc2ccccc2)C(C)C)cc1
Result: ≤ 0.3 µM
